// provenance: patent US12435061B2

Parameter half-life at 1 μM: see the listing below.
- test.protocol: Metabolic Stability assay, rat liver microsomes
- Type: in vitro ADME
- measurement.context: read-out: LM T1/2 (min) (rat)

| molecule | half-life at 1 μM / min |
| --- | --- |
| OCCOc1cc(-c2ccccc2)ccc1N1CC[C@H](Oc2ccc(C(F)(F)F)cn2)C1 | 69.7 |
| CC(C)c1ccccc1Oc1ccc(N2CC[C@H](Oc3ccccn3)C2)c(CO)c1 | 18.9 |
| COc1ccccc1-c1ccc(N2CC[C@H](Oc3ccc(C(F)(F)F)cn3)C2)c(CO)c1 | 38.9 |
| COc1ccccc1Oc1ccc(N2CC[C@H](Oc3ncccc3Cl)C2)c(CCO)c1 | 8.33 |
| OCc1cc(Oc2ccccc2F)ccc1N1CC[C@H](Oc2ncccc2Cl)C1 | 24.3 |
| NC(=O)c1cc(C(=O)c2ccccc2)ccc1N1CC[C@H](Oc2ccc(C(F)(F)F)cn2)C1 | 67 |
| OCc1cc(C(O)c2ccccc2Cl)ccc1N1CC[C@H](Oc2ncccc2Cl)C1 (stereo partly shown) | 14.6 |
| OCc1cc(C(O)c2ccccc2Cl)ccc1N1CC[C@H](Oc2ncccc2F)C1 (stereo partly shown) | 19.4 |
| CC(C)c1ccccc1Oc1ccc(N2CC[C@H](Oc3ncccc3Cl)C2)c(CCO)c1 | 14.6 |
| CCc1ccccc1-c1ccc(CO)c(N2CC[C@H](Oc3ncccc3Cl)C2)c1 | 4.46 |
| OCc1ccc(Oc2ccccc2Cl)cc1N1CC[C@H](Oc2ncccc2Cl)C1 | 5.87 |
| Oc1cc(-c2ccccc2Cl)ccc1N1CC[C@@H](Oc2ccc(C(F)(F)F)cn2)C1 | 33.5 |
| O=C(c1ccc(F)cc1)c1ccc(N2CC[C@H](Oc3ncccc3Cl)C2)c(CO)c1 | 18.4 |
| NC(=O)c1cc(Cl)ccc1N1CC[C@H](Oc2ccc(C(F)(F)F)cn2)C1 | 34.3 |
| CCc1ccccc1Oc1ccc(N2CC[C@H](Oc3ccccn3)C2)c(CO)c1 | 22.8 |
| CCc1ccccc1Oc1ccc(CO)c(N2CC[C@H](Oc3ncccc3Cl)C2)c1 | 10.4 |
| Cc1ccccc1C(O)c1ccc(N2CC[C@H](Oc3ncccc3F)C2)c(CO)c1 (stereo partly shown) | 16.3 |
| OCc1cc(-c2ccccc2)ccc1N1CC[C@H](Oc2ccc(C(F)(F)F)cn2)C1 | 45.8 |
| OCCc1cc(-c2ccccc2)ccc1N1CC[C@H](Oc2ccc(C(F)(F)F)cn2)C1 | 65.2 |
| OCc1cc([C@@H](O)c2ccccc2Cl)ccc1N1CC[C@H](Oc2ncccc2F)C1 | 16.9 |
| OCCOc1cc(-c2ccccc2)ccc1N1CC[C@@H](Oc2ccc(C(F)(F)F)cn2)C1 | 79.8 |
| NC(=O)c1cc(Oc2ccccc2Cl)ccc1N1CC[C@H](Oc2ncccc2Cl)C1 | 8.96 |
| COC(c1ccc(F)cc1)c1ccc(N2CC[C@H](Oc3ncccc3Cl)C2)c(CO)c1 (stereo partly shown) | 9.22 |
| NC(=O)c1cc(-c2ccc(F)cc2)ccc1N1CC[C@H](Oc2ccc(C(F)(F)F)cn2)C1 | 77.3 |
| CCc1ccccc1Oc1ccc(N2CC[C@H](OCc3ncccc3C)C2)c(CO)c1 | 5.19 |
| CCc1ccccc1C(=O)c1ccc(N2CC[C@H](Oc3ncccc3Cl)C2)c(CO)c1 | 6.05 |
| NC(=O)c1cc(Cc2ccccc2)ccc1N1CC[C@H](Oc2ccc(C(F)(F)F)cn2)C1 | 27.7 |
| CC(=O)c1ccccc1-c1ccc(N2CC[C@H](Oc3ccc(C(F)(F)F)cn3)C2)c(CO)c1 | 17.5 |
| NC(=O)c1cc(C(=O)c2ccccc2)ccc1N1CC[C@H](Oc2ncccc2Cl)C1 | 19.7 |
| COCc1ccccc1-c1ccc(N2CC[C@H](Oc3ccc(C(F)(F)F)cn3)C2)c(CO)c1 | 19.1 |
| NC(=O)c1cc(C(O)c2ccccc2)ccc1N1CC[C@H](Oc2ccc(C(F)(F)F)cn2)C1 (stereo partly shown) | 45.8 |
| CCc1ccccc1Oc1ccc(N2CC[C@H](Oc3ncccc3C)C2)c(CO)c1 | 22 |
| OCCCc1cc(-c2ccccc2)ccc1N1CC[C@H](Oc2ccc(C(F)(F)F)cn2)C1 | 62.4 |
| COCc1ccccc1Oc1ccc(N2CC[C@H](Oc3ncccc3Cl)C2)c(CCO)c1 | 7.44 |
